Counter-ions that a name gives are not always drawn.
recordedMetric: melting point

Reference set (7 entries):
compound | melting point
Cc1cnc(C(=O)c2ccc(OC(CCN(C)CC(=O)O)c3ccc(Cl)cc3)cc2)s1 (centres unmarked) (as salt: salt) | 182 to 192 °C
CN(CCC(Oc1ccc(C(=O)c2ccsc2)cc1)c1ccc(F)cc1)CC(=O)O (centres unmarked) (as salt: salt) | 65 to 75 °C
Cc1ccc(C(=O)c2ccc(OC(CCN(C)CC(=O)O)c3ccc(Cl)cc3)cc2)cc1 (centres unmarked) (as salt: salt) | 65 to 71 °C
CN(CCC(Oc1ccc(C(=O)c2ccccc2F)cc1)c1ccc(F)cc1)CC(=O)O (centres unmarked) (as salt: salt) | 65 to 75 °C
CN(CCC(Oc1ccc(C(=O)c2nccs2)cc1)c1ccc(F)cc1)CC(=O)O (centres unmarked) (as salt: salt) | 98 to 108 °C
CN(CCC(Oc1ccc(C(=O)c2ccncc2)cc1)c1ccc(Cl)cc1)CC(=O)O (centres unmarked) | 72 to 82 °C
CN(CCC(Oc1ccc(C(=O)c2ccccc2F)cc1)c1ccc(Cl)cc1)CC(=O)O (centres unmarked) (as salt: salt) | 75 to 85 °C

Proceed to the following item.
Ask: Give me measured melting point, please, for this compound: CN(CCC(Oc1ccc(C(=O)c2nc3ccccc3s2)cc1)c1ccc(F)cc1)CC(=O)O (centres unmarked) (as salt: salt)
Result: 105 to 111 °C
